Source: patent US10858369B2

Assay: Approximate solubility in different solvents at approximate 23° C.
Format: physicochemical
Conditions: organic solvent or mixture, thermodynamic from solid, 1-Methoxy-2-propanol
propertyMeasured: solubility

query: solubility lookup needed for CC(C)CN(C[C@@H](O)[C@H](Cc1ccccc1)NC(=O)O[C@H]1CO[C@H]2OCC[C@H]21)S(=O)(=O)c1ccc(N)cc1 [Form A] , thanks.
result: 160 to 213 mg/mL

====

Assay: Aqueous solubility in solvents with different pH (excess solute equilibrated at 20° C., UV spectrometry)
Type: physicochemical
Settings: pH 2, aqueous buffer, 0.01N HCl (pH 2.0), at least 48 hours
propertyMeasured: solubility thermodynamic (µg/mL)
All answers are understood in µg/mL, so give the number only.

query: Give the measured solubility thermodynamic of CC(C)CN(C[C@@H](O)[C@H](Cc1ccccc1)NC(=O)O[C@H]1CO[C@H]2OCC[C@H]21)S(=O)(=O)c1ccc(N)cc1 [Form K] .
result: 240

====

Experiment: Aqueous solubility in solvents with different pH (excess solute equilibrated at 20° C., UV spectrometry)
Type: physicochemical
Conditions: pH 0.14, aqueous buffer, 1.0N HCl (pH 0.14), at least 24 hours
propertyMeasured: solubility thermodynamic (µg/mL)
Numeric answer only, unit µg/mL assumed.

query: Using the record for CC(C)CN(C[C@@H](O)[C@H](Cc1ccccc1)NC(=O)O[C@H]1CO[C@H]2OCC[C@H]21)S(=O)(=O)c1ccc(N)cc1 [Form B] , report its solubility thermodynamic.
result: 5100
